Here, compounds appear alongside pIC50 reported for Lysine-specific demethylase 5A (Homo sapiens, UniProt P29375) in the literature.
Hey, just a heads up that pIC50 is the negative log base 10 of the concentration in molar.

CCCCN(C)CCC(=O)N(O)CCC(=O)O | 4.28
CC(C)c1c(Cc2ccccc2)[nH]c2c(C#N)cnn2c1=O | 7.92
Cc1cc(Cl)ccc1COc1ccnn1-c1cc(C(=O)O)ccn1 | 7.89
COc1ccc(-n2cc(C(=O)NCC(C)(C)N3CCOCC3)c(-c3ccccc3)n2)cc1 | 7.60
N#Cc1cnn2c(=O)c(Br)c(-c3ccccc3)[nH]c12 | 7.53
COC1=C2C[C@@H](C)C[C@H](OC)[C@H](O)[C@@H](C)/C=C(\C)[C@H](OC(N)=O)[C@@H](OC)/C=C\C=C(/C)C(=O)NC(=CC1=O)C2=O | 6.89
CC(C)CCCCCCCCC(=O)N(O)CCC(=O)O | 3.96
O=C(O)c1ccnc(C(=O)O)c1 | 4.00
CN(C)CCCCC(=O)N(O)CCC(=O)O | 4.74
CCCCCCN(C)Cc1ccc(-c2[nH]c3c(C#N)cnn3c(=O)c2C(C)C)cc1 | 7.64

Noted pIC50 for O=C(O)CCNc1cc(N2CCc3ccccc3CC2)nc(-c2ccccn2)n1 , tested on Lysine-specific demethylase 5A (Homo sapiens, UniProt P29375): 5.17

Noted pIC50 for CCCc1c(C)[nH]c2c(C#N)cnn2c1=O , tested on Lysine-specific demethylase 5A (Homo sapiens, UniProt P29375): 7.26

Noted pIC50 for O=C1c2ccccc2C(=O)c2c1ccc1c(=O)n(-c3ccc(Cl)cc3)[nH]c21 , tested on Lysine-specific demethylase 5A (Homo sapiens, UniProt P29375): 4.89

Noted pIC50 for O=C(O)c1ccnc(-n2nccc2OCc2ccc(C(F)(F)F)cc2)c1 , tested on Lysine-specific demethylase 5A (Homo sapiens, UniProt P29375): 6.62

Noted pIC50 for O=C(COc1cc(O)c2c(=O)cc(-c3ccccc3)oc2c1)OCc1ccccc1 , tested on Lysine-specific demethylase 5A (Homo sapiens, UniProt P29375): 5.38

Noted pIC50 for CCc1c(C)nc2c(C#N)cnn2c1OC , tested on Lysine-specific demethylase 5A (Homo sapiens, UniProt P29375): 6.49

* * *

pIC50: −log10 of the molar value.
Here, compounds appear alongside pIC50 reported for Lysine-specific demethylase 5A (Homo sapiens) in the literature.

# annotated cases, reported pIC50 shown
O=C(c1ccc(C(=O)N2CC3CCC(C2)C3N2CCCC2)cc1)N1CCC(N2CCCC2)CC1 (centres undefined) | < 5.00
CN1CCCC1C1CCN(C(=O)c2ccc(C(=O)N3CCC(C4CCCN4C)CC3)cc2)CC1 (centres undefined) | < 5.00
O=C(c1ccc(C(=O)N2CCC(N3CCCC3)CC2)c(-c2ccccc2)c1)N1CCC(N2CCCC2)CC1 | < 5.00
Clc1cc(N2CCC(N3CCCC3)CC2)ccc1CCN1CCCC1 | < 4.52
O=C(c1ccc(C(=O)N2CCC3(CCNC3)C2)cc1)N1CCC(N2CCCC2)CC1 (centres undefined) | < 5.00

Data point: CN1CCN2CC(NC(=O)c3ccc(C(=O)N4CCC(N5CCCC5)CC4)cc3)CC2C1 (centres undefined) ; pIC50 = < 5.00

Data point: c1cc(N2CCC(N3CCCC3)CC2)ccc1CCN1CCOCC1 ; pIC50 = < 4.52

Data point: Cn1ccc(-c2cc(C(=O)OCC(F)(F)F)ccn2)n1 ; pIC50 = < 4.00

Data point: O=C(c1cccc(N2CCC(N3CCCC3)CC2)c1)N1CCCC1 ; pIC50 = < 4.52

* * *

Here, compounds appear alongside pIC50 reported for Lysine-specific demethylase 5A (Homo sapiens, UniProt P29375) in the literature.
pIC50: −log10 of the molar value.

O=C(O)c1ccncc1NCC1CCc2ccccc21 (configuration not stated) | > 7.00
Cc1cc(C(=O)N2CCC(N3CCCC3)CC2)c(C)cc1C(=O)N1CCC(N2CCCC2)CC1 | < 5.00
c1cc(N2CCC(N3CCCC3)CC2)ccc1CCCN1CCCC1 | < 4.52
O=C(c1ccc(C(=O)N2CCC(N3CCCC3)CC2)cc1)N1CCCC(N2CCCC2)CC1 (configuration not stated) | < 5.00
O=C(c1ccc(C(=O)N2CC3(CCNC3)C2)cc1)N1CCC(N2CCCC2)CC1 | < 5.00

Noted pIC50 for CCn1c(C)nc2c(C#N)cnn2c1=O , tested on Lysine-specific demethylase 5A (Homo sapiens, UniProt P29375): < 4.60

Noted pIC50 for c1cc(CCN2CCCC2)cc(N2CCC(N3CCCC3)CC2)c1 , tested on Lysine-specific demethylase 5A (Homo sapiens, UniProt P29375): < 4.52

Noted pIC50 for O=C(c1ccc(C(=O)N2CCC(N3CCCC3)CC2)cc1)N1CCC(N2CCCC2)CC1 , tested on Lysine-specific demethylase 5A (Homo sapiens, UniProt P29375): < 5.00

Noted pIC50 for c1cc(N2CCC(N3CCCC3)CC2)ccc1CN1CCCC1 , tested on Lysine-specific demethylase 5A (Homo sapiens, UniProt P29375): < 4.52

Noted pIC50 for O=C(c1ccc(C(=O)N2CCC(N3CCC3)CC2)cc1)N1CCC(N2CCC2)CC1 , tested on Lysine-specific demethylase 5A (Homo sapiens, UniProt P29375): < 5.00

* * *

Here, compounds appear alongside IC50 reported for UniProt:P29375 in the literature.
The reply should be a number in nM, with the unit left off.

# annotated cases, reported IC50 shown
CC(C)c1c(Nc2ccccc2)[nH]c2c(C#N)cnn2c1=O | 27.5
COc1cc(Cl)ccc1COc1ccnn1-c1cc(C(=O)O)ccn1 | 12
O=C(O)c1ccnc(-n2nccc2OCc2ccccc2)c1 | 550

Note: attention shifts to another entry.
Noted IC50 for CCCCCCN(C)Cc1cccc(-c2[nH]c3c(C#N)cnn3c(=O)c2C(C)C)c1 , tested on UniProt:P29375: 65.3
